# pIC50 annotations
target: human Yes1 enzyme (Homo sapiens, UniProt P07947); construct: made in house; assay: Yes1 enzyme inhibitory activity (time-resolved fluorometry, biotinylated peptide phosphorylation); format: biochemical; details: biotinylated peptide phosphorylation, read-out: YES_IC50
Sequence (P07947 whole entry): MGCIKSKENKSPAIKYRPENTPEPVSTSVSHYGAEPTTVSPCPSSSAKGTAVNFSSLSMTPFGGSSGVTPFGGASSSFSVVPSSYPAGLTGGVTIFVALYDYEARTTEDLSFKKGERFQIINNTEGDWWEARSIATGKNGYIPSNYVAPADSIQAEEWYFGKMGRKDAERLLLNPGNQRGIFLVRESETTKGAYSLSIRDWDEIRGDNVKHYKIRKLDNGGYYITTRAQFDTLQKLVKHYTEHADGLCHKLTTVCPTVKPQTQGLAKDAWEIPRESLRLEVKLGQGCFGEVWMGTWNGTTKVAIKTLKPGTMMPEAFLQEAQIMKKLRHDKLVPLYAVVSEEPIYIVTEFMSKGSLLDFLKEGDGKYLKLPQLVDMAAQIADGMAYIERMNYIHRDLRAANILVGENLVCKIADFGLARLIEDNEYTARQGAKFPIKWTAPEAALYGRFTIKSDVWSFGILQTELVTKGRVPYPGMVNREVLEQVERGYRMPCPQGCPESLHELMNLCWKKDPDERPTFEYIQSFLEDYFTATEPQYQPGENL
pIC50: −log10 of the molar value.
endpoint: pIC50

molecule: COc1cc2cc(C(=O)c3cnn(-c4cnc(Oc5c(F)cccc5F)cc4C)c3N)[nH]c2cc1NS(=O)(=O)CCCF [Example 4-19-001]
endpoint: pIC50
meas value: 9.08

molecule: Cc1cc(Oc2c(F)cccc2F)ncc1-n1ncc(C(=O)c2cc3cc(OCC(F)F)c(N4C(=O)NC(C)(C)C4=O)cc3[nH]2)c1N [Example 4-23-032]
endpoint: pIC50
meas value: 9.24

molecule: Cc1cc(Oc2ccccc2)cc(F)c1-n1ncc(C(=O)c2cc3cc(NS(C)(=O)=O)c(Cl)cc3[nH]2)c1N [Example 4-2-095]
endpoint: pIC50
meas value: 9.07

molecule: CC(C)N1CCC(c2cc3cc(C(=O)c4cnn(-c5ccc(Oc6cccc(Cl)c6)cc5)c4N)[nH]c3cc2F)CC1 [Example 4-2-005]
endpoint: pIC50
meas value: 8.82

molecule: Cc1cc(Oc2ccccc2F)ncc1-n1ncc(C(=O)c2cc3cc(OC(F)F)c(NS(C)(=O)=O)cc3[nH]2)c1N [Example 4-24-008]
endpoint: pIC50
meas value: 8.68

molecule: Cc1cc(Oc2c(F)cccc2F)ncc1-n1ncc(C(=O)c2cc3cc(F)c(N4C(=O)CNC4=O)cc3[nH]2)c1N [Example 5-1-405]
endpoint: pIC50
meas value: 8.57

###

target: human Lck enzyme (Homo sapiens, UniProt P06239); construct: purchased Carna Biosciences, Inc. 08-170; test: Lck enzyme inhibitory activity (time-resolved fluorometry, biotinylated peptide phosphorylation); assay type: biochemical; conditions: read-out: LCK_IC50
Sequence (P06239 whole entry): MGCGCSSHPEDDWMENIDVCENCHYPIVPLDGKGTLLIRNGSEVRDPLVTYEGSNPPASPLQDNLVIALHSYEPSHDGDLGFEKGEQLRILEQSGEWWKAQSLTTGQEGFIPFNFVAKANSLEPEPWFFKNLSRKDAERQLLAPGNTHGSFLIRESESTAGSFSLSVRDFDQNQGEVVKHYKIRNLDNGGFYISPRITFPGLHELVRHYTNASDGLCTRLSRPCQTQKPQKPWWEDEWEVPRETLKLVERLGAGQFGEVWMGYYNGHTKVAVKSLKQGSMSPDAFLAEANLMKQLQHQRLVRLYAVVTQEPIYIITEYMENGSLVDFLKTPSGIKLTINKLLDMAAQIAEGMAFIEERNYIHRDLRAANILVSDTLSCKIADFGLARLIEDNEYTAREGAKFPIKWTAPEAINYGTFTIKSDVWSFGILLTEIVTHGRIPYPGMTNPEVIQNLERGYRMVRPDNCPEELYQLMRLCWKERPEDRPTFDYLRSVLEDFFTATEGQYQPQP
# IC50 annotations
endpoint: IC50 (nM)

smiles structure: Cc1cc(Oc2ccccc2Cl)ncc1-n1ncc(C(=O)c2cc3cc(NS(C)(=O)=O)c(F)cc3[nH]2)c1N
meas value: 1.8
//
smiles structure: CS(=O)(=O)Nc1cc2[nH]c(C(=O)c3cnn(-c4ccc(Oc5ccccc5F)cc4Cl)c3N)cc2cc1F
meas value: 33
//
smiles structure: Cc1cc(Oc2c(F)cccc2F)ncc1-n1ncc(C(=O)c2cc3cc(OCC(F)F)c(C4CCOCC4)cc3[nH]2)c1N
meas value: 25
//
smiles structure: Cc1cc(Oc2ccccc2F)ccc1-n1ncc(C(=O)c2cc3cc(OCC(F)F)c(N4C(=O)[C@@H]5C[C@H](NC(=O)OCC(C)C)CN5C4=O)cc3[nH]2)c1N
meas value: 17
//
smiles structure: Nc1c(C(=O)c2cc3cc(F)c(NS(=O)(=O)CCCF)cc3[nH]2)cnn1-c1ccc(Oc2ncccc2Cl)cc1F
meas value: 65
//
smiles structure: Cc1cc(-n2ncc(C(=O)c3cc4cc(OC5CCN(C6CCC6)CC5)c(Br)cc4[nH]3)c2N)ccc1Oc1ccccc1F
meas value: 39

###

target: human Yes1 enzyme (Homo sapiens); construct: made in house; experiment: Yes1 enzyme inhibitory activity (time-resolved fluorometry, biotinylated peptide phosphorylation); type: biochemical; conditions: biotinylated peptide phosphorylation, read-out: YES_IC50
# IC50 annotations

compound: Cc1cc(Oc2c(F)cccc2F)ncc1-n1ncc(C(=O)c2cc3cc(F)c(N4C(=O)N[C@@H](CO)C4=O)cc3[nH]2)c1N [Example 5-1-407]
IC50: 2.2 nM

compound: Cc1cc(C)c(S(=O)(=O)Nc2cc3[nH]c(C(=O)c4cnn(-c5cnc(Oc6ccccc6F)cc5C)c4N)cc3cc2C)c(C)c1 [Example 5-1-461]
IC50: 17 nM

compound: Cc1cc(Oc2c(F)cccc2F)ncc1-n1ncc(C(=O)c2cc3cc(OC(F)F)c(NS(C)(=O)=O)cc3[nH]2)c1N [Example 4-24-011]
IC50: 2.3 nM

compound: CC(=O)N1CCC(c2cc3[nH]c(C(=O)c4cnn(-c5cnc(Oc6c(F)cccc6F)cc5C)c4N)cc3cc2OCC(F)F)CC1 [Example 4-17-001]
IC50: 4.5 nM

compound: Cc1cc(Oc2ccccc2F)ncc1-n1ncc(C(=O)c2cc3cc(F)c(NS(C)(=O)=O)cc3[nH]2)c1N [Example 4-7-001]
IC50: 2.2 nM

compound: Cc1cc(Oc2ccccc2F)ncc1-n1ncc(C(=O)c2cc3cc(F)c(N4CC(C)(C)NS4(=O)=O)cc3[nH]2)c1N [Example 5-1-421]
IC50: 1.1 nM

###

molecular target: human Lck enzyme (Homo sapiens, UniProt P06239); construct: purchased Carna Biosciences, Inc. 08-170; assay: Lck enzyme inhibitory activity (time-resolved fluorometry, biotinylated peptide phosphorylation); type: biochemical; conditions: biotinylated peptide phosphorylation, read-out: LCK_IC50

compound: Cc1cc(Oc2c(F)cccc2F)ncc1-n1ncc(C(=O)c2cc3cc(OC(F)F)c(C4CCN(S(=O)(=O)C5CC5)CC4)cc3[nH]2)c1N [Example 4-17-013]
IC50 / nM: 37
//
compound: Cc1cc2cc(C(=O)c3cnn(-c4cnc(Oc5c(F)cccc5F)cc4C)c3N)[nH]c2cc1NS(=O)(=O)c1cccc(Cl)c1 [Example 5-1-557]
IC50 / nM: 320
//
compound: CC(=O)N1CCC(c2cc3[nH]c(C(=O)c4cnn(-c5c(C)cc(Oc6ccccc6F)cc5F)c4N)cc3cc2OC(F)F)CC1 [Example 4-17-005]
IC50 / nM: 17
//
compound: Cc1cc(Oc2c(F)cccc2Cl)ncc1-n1ncc(C(=O)c2cc3cc(F)c(NS(=O)(=O)C4CC4)cc3[nH]2)c1N [Example 4-2-046]
IC50 / nM: 48
//
compound: Cc1cc(Oc2c(F)cccc2F)ncc1-n1ncc(C(=O)c2cc3cc(OCC(F)F)c(NC4COC4)cc3[nH]2)c1N [Example 4-23-008]
IC50 / nM: 4.6
//
compound: Cc1cc2cc(C(=O)c3cnn(-c4cnc(Oc5ccccc5F)cc4C)c3N)[nH]c2cc1NS(=O)(=O)CC(=O)N1CCOCC1 [Example 4-15-001]
IC50 / nM: 9.9
//
compound: Cc1cc(Oc2ccccc2F)cc(F)c1-n1ncc(C(=O)c2cc3cc(OC(F)F)c(C4CCN(S(C)(=O)=O)CC4)cc3[nH]2)c1N [Example 4-17-006]
IC50 / nM: 13
//
compound: Cc1cc2cc(C(=O)c3cnn(-c4cnc(Oc5c(F)cccc5F)cc4C)c3N)[nH]c2cc1NS(=O)(=O)c1cc(F)cc(F)c1 [Example 5-1-561]
IC50 / nM: 270
//
compound: Cc1cc(Oc2ccccc2F)ccc1-n1ncc(C(=O)c2cc3cc(F)c(N4C(=O)N[C@@H](C)C4=O)cc3[nH]2)c1N [Example 5-1-411]
IC50 / nM: 4.2
//
compound: Cc1cc(Oc2cc(F)ccc2Cl)ncc1-n1ncc(C(=O)c2cc3cc(F)c(NS(C)(=O)=O)cc3[nH]2)c1N [Example 4-2-034]
IC50 / nM: 44
//
compound: Cc1cc(Oc2ccccc2F)ccc1-n1ncc(C(=O)c2cc3cc(F)c(N4C(=O)N[C@@H](Cc5ccccc5)C4=O)cc3[nH]2)c1N [Example 5-1-436]
IC50 / nM: 35
//
compound: Cc1cc(Oc2c(F)cccc2F)ncc1-n1ncc(C(=O)c2cc3cc(OCC(F)F)c(NC4CCN(S(C)(=O)=O)CC4)cc3[nH]2)c1N [Example 4-23-021]
IC50 / nM: 11
//
compound: Cc1cc(Oc2ccccc2F)cc(F)c1-n1ncc(C(=O)c2cc3cc(OCC(F)F)c(NS(C)(=O)=O)cc3[nH]2)c1N [Example 4-24-025]
IC50 / nM: 13

###

# pIC50 annotations
biological target: human Yes1 enzyme (Homo sapiens, UniProt P07947); construct: made in house; experiment: Yes1 enzyme inhibitory activity (time-resolved fluorometry, biotinylated peptide phosphorylation); type: biochemical; details: read-out: YES_IC50
pIC50: −log10 of the molar value.

smiles structure: Cc1cc2cc(C(=O)c3cnn(-c4cnc(Oc5c(F)cccc5F)cc4C)c3N)[nH]c2cc1NS(=O)(=O)C1CCCC1
target of assay: human Yes1 enzyme (Homo sapiens, UniProt P07947)
pIC50: 7.80

smiles structure: Cc1cc2cc(C(=O)c3cnn(-c4cc(C)c(Oc5ccccc5F)cc4C)c3N)[nH]c2cc1NS(C)(=O)=O
target of assay: human Yes1 enzyme (Homo sapiens, UniProt P07947)
pIC50: 7.28

smiles structure: Cc1cc2cc(C(=O)c3cnn(-c4ccc(Oc5ccccc5F)cc4C)c3N)[nH]c2cc1N1C(=O)NC2(CCNCC2)C1=O
target of assay: human Yes1 enzyme (Homo sapiens, UniProt P07947)
pIC50: 8.89

smiles structure: Cc1ccccc1Oc1cc(C)c(-n2ncc(C(=O)c3cc4cc(NS(C)(=O)=O)c(F)cc4[nH]3)c2N)cn1
target of assay: human Yes1 enzyme (Homo sapiens, UniProt P07947)
pIC50: 9.06

smiles structure: CC(C)N1CCC(c2cc3[nH]c(C(=O)c4cnn(-c5ccc(Oc6cccc(F)c6)cc5)c4N)cc3cc2F)CC1
target of assay: human Yes1 enzyme (Homo sapiens, UniProt P07947)
pIC50: 8.62

smiles structure: Cc1cc2cc(C(=O)c3cnn(-c4c(C)cc(Oc5ccccc5F)cc4F)c3N)[nH]c2cc1N1CCOCC1
target of assay: human Yes1 enzyme (Homo sapiens, UniProt P07947)
pIC50: 8.39

smiles structure: Cc1cc(-n2ncc(C(=O)c3cc4cc(OC5CCN(C6CCCC6)CC5)c(-c5ccccc5C(F)(F)F)cc4[nH]3)c2N)ccc1Oc1ccccc1F
target of assay: human Yes1 enzyme (Homo sapiens, UniProt P07947)
pIC50: 8.52

smiles structure: COc1ccc(Cl)c(S(=O)(=O)Nc2cc3[nH]c(C(=O)c4cnn(-c5ccc(Oc6ccccc6F)cc5C)c4N)cc3cc2OCC(F)F)c1
target of assay: human Yes1 enzyme (Homo sapiens, UniProt P07947)
pIC50: 8.15

smiles structure: Cc1cc(Oc2c(F)cccc2F)ncc1-n1ncc(C(=O)c2cc3cc(OCC(F)F)c(NS(=O)(=O)C4CCCCC4)cc3[nH]2)c1N
target of assay: human Yes1 enzyme (Homo sapiens, UniProt P07947)
pIC50: 8.09

smiles structure: Cc1cc(Oc2c(F)cccc2F)ncc1-n1ncc(C(=O)c2cc3cc(OCC(F)F)c(N4CC(C)(C)NS4(=O)=O)cc3[nH]2)c1N
target of assay: human Yes1 enzyme (Homo sapiens, UniProt P07947)
pIC50: 8.24

smiles structure: Cc1ccc(S(=O)(=O)Nc2cc3[nH]c(C(=O)c4cnn(-c5cnc(Oc6c(F)cccc6F)cc5C)c4N)cc3cc2OCC(F)F)cc1
target of assay: human Yes1 enzyme (Homo sapiens, UniProt P07947)
pIC50: 8.02

smiles structure: COc1cc2cc(C(=O)c3cnn(-c4c(C)cc(Oc5ccccc5F)cc4F)c3N)[nH]c2cc1NS(=O)(=O)CC(=O)NC(C)C
target of assay: human Yes1 enzyme (Homo sapiens, UniProt P07947)
pIC50: 8.89

smiles structure: Cc1cc(Oc2ccccc2F)ccc1-n1ncc(C(=O)c2cc3cc(C(C)C)c(NS(=O)(=O)C4CCOCC4)cc3[nH]2)c1N
target of assay: human Yes1 enzyme (Homo sapiens, UniProt P07947)
pIC50: 8.32
